Measured IC50 values are reported for all entries that follow.
target: PIM1 (Homo sapiens (Human), UniProt P11309); test: PIM1 kinase activity test (Mobility shift assay); type: biochemical
Sequence (P11309 whole entry): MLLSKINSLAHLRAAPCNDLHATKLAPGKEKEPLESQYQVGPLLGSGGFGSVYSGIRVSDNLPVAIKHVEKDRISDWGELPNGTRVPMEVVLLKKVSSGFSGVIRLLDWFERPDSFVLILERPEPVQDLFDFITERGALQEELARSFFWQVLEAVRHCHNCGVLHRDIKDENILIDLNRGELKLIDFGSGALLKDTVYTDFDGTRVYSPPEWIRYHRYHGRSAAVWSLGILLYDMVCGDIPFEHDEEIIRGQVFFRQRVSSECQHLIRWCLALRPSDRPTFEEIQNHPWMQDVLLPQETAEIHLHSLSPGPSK

Illustrative cases are given below, each with its answer.
{"smiles-input": "OC[C@H]1CC[C@H](Nc2ccc3ncc(-c4cccc(C(F)(F)F)c4)n3n2)CO1", "experimental-system": "PIM1 (Homo sapiens (Human), UniProt P11309)", "IC50": "100 to 1000 nM"}
{"smiles-input": "CC(C)(O)[C@H]1CC[C@H](Nc2ccc3ncc(-c4ccc(C(F)(F)F)s4)n3n2)CC1", "experimental-system": "PIM1 (Homo sapiens (Human), UniProt P11309)", "IC50": "< 2 nM"}
{"smiles-input": "CN1CCC2(CC1)CC(Nc1ccc3ncc(-c4cccc(C(F)(F)F)c4)n3n1)C2", "experimental-system": "PIM1 (Homo sapiens (Human), UniProt P11309)", "IC50": "10 to 100 nM"}

Query: IC50; subject: `CC(C)(O)[C@H]1CC[C@H](Nc2ccc3ncc(-c4cccc(S(C)(=O)=O)c4)n3n2)CC1`
100 to 1000 nM

====

assay: Pharmacokinetic test; type: in vivo; settings: female, mouse, plasma; BALB/c mice, intravenous injection, 2 mg/kg
assay-endpoint: clearance (mL/min/kg)

P: OC[C@@H]1CC[C@@H](Nc2ccc3ncc(-c4ccc(C(F)(F)F)s4)n3n2)CO1 [Compound 46]
Q: OC12CCC(Nc3ccc4ncc(-c5ccc(C(F)(F)F)s5)n4n3)(CC1)CC2 [Compound 29]
# argmax over clearance for candidates P and Q Record your answer as the label of the chosen record.
P

1: CC(C)(O)[C@H]1CC[C@H](Nc2ccc3ncc(-c4cccc(C(F)(F)F)c4)n3n2)CC1 [TP-3654, reference compound]
2: CC(C)(O)[C@H]1CC[C@H](Nc2ccc3ncc(-c4ccc(C(F)(F)F)s4)n3n2)CC1 [Compound 20]
Smaller clearance value? Options are 1 and 2 Choose, then provide that item's label.
2
(2: 31 mL/min/kg, 1: 51.8 mL/min/kg)

====

assay: Pharmacokinetic test; format: in vivo; details: female, mouse, plasma; BALB/c mice, oral administration, 50 mg/kg
assay-endpoint: Cmax (ng/mL)

P: OC12CCC(Nc3ccc4ncc(-c5ccc(C(F)(F)F)s5)n4n3)(CC1)CC2
Q: CC(C)(O)[C@H]1CC[C@H](Nc2ccc3ncc(-c4cccc(C(F)(F)F)c4)n3n2)CC1 [TP-3654, reference compound]
R: OC[C@@H]1CC[C@@H](Nc2ccc3ncc(-c4ccc(C(F)(F)F)s4)n3n2)CO1
S: CC(C)(O)[C@H]1CC[C@H](Nc2ccc3ncc(-c4ccc(C(F)(F)F)s4)n3n2)CC1
Which order do these items fall in when sorted by Cmax from largest to smallest? Your task in answering is to list the labels in the requested order.
R, P, S, Q

====

experiment: Pharmacokinetic test; format: in vivo; settings: female, mouse, plasma; BALB/c mice, oral administration, 50 mg/kg
assay-endpoint: Tmax (min)

{"compound": "CC(C)(O)[C@H]1CC[C@H](Nc2ccc3ncc(-c4ccc(C(F)(F)F)s4)n3n2)CC1", "assay-result": 79.8}

1: OC12CCC(Nc3ccc4ncc(-c5ccc(C(F)(F)F)s5)n4n3)(CC1)CC2
2: OC[C@@H]1CC[C@@H](Nc2ccc3ncc(-c4ccc(C(F)(F)F)s4)n3n2)CO1
3: CC(C)(O)[C@H]1CC[C@H](Nc2ccc3ncc(-c4cccc(C(F)(F)F)c4)n3n2)CC1 [TP-3654, reference compound]
Falling order of Tmax, please. Your answer should be the labels, listed in the requested order.
3, 2, 1
